System: SF-268
Experiment: NCI tumour cell line growth inhibition, 48 h
Calls of active or inactive are those of the source. Cut-off read from the data, not from the text of the source: active = GI50 up to about 1.1 µM and inactive = higher.
Each record here notes measured GI50.

{"Molecule": "CN(C)c1ccc(/C=C(\\NC(=O)c2ccccc2)C(=O)NC(CC(=O)O)C(=O)O)cc1 (stereo unspecified)", "GI50": "61.4 µM (inactive)"}
{"Molecule": "O=C1[C@@H]2C3SC(c4ccccc43)[C@@H]2C(=O)N1c1ccccc1", "GI50": "> 95.1 µM (inactive)"}
{"Molecule": "O=C(O)CS(=O)(=O)C(c1ccccc1)c1ccccc1", "GI50": "> 100 µM (inactive)"}
{"Molecule": "c1ccc2sc(C3(N4CCCCCC4)CCCCC3)cc2c1", "GI50": "25.8 µM (inactive)"}
{"Molecule": "S=P(N1CC1)(N1CC1)N1CC1 [THIOTEPA]", "GI50": "39.4 µM (inactive)"}
{"Molecule": "CC(=O)Oc1ccc(C2SCc3nc4ccccc4n32)cc1 (stereo unspecified)", "GI50": "21 µM (inactive)"}

Just for reference, ChEMBL document CHEMBL1201862 is where these values come from.
